Ref: patent US20060211002A1

test system: 60 clinical P. aeruginosa isolates; test: Antibiotic susceptibility testing, NEG MIC Type 30 panel on MicroScan WalkAway-96 SI, MICs interpreted according to NCCLS guidelines; type: cell-based, Pseudomonas aeruginosa; details: Table 6; phenotypic resistance
Mark Satisfied for Number of resistant isolates out of 60 under 20, Not satisfied if at or over.

Please let me know if "C[C@@H](O)[C@H]1C(=O)N2C(C(=O)O)=C(SCCN=CN)C[C@H]12" shows Number of resistant isolates out of 60 below 20.
Not satisfied

Please let me know if "NC[C@H]1O[C@H](O[C@H]2[C@H](O)[C@@H](O[C@H]3O[C@H](CO)[C@@H](O)[C@H](N)[C@H]3O)[C@H](N)C[C@@H]2N)[C@H](N)C[C@@H]1O" shows Number of resistant isolates out of 60 below 20.
Satisfied

Please let me know if "C[C@H]1COc2c(N3CCN(C)CC3)c(F)cc3c(=O)c(C(=O)O)cn1c23" shows Number of resistant isolates out of 60 below 20.
Not satisfied

Please let me know if "CCN1CCN(C(=O)N[C@@H](C(=O)N[C@@H]2C(=O)N3[C@@H]2SC(C)(C)[C@@H]3C(=O)O)c2ccccc2)C(=O)C1=O" shows Number of resistant isolates out of 60 below 20.
Not satisfied

Please let me know if "NCC[C@H](O)C(=O)N[C@@H]1C[C@H](N)[C@@H](O[C@H]2O[C@H](CN)[C@@H](O)[C@H](O)[C@H]2O)[C@H](O)[C@H]1O[C@H]1O[C@H](CO)[C@@H](O)[C@H](N)[C@H]1O" shows Number of resistant isolates out of 60 below 20.
Satisfied
